B1: HDV Ribozyme (parent)
chain: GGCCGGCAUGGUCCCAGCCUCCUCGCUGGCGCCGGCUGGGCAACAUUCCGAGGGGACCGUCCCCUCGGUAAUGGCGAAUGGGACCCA

# Variants of: B1
# experiment: self-cleavage, relative activity (ratio to wild type); higher = more cleavage; co-transcriptional
Think of 0.3 as a floor: if self-cleavage stands on it or above, it is class 1; beneath it, class 0.

# sequence variant, class
records = [
    ("C7U G76C", "class 1"),
    ("U9C G76U", "class 1"),
    ("C58G G81C", "class 1"),
    ("G34A A77C", "class 0"),
    ("G1U G74A", "class 0"),
    ("G1A C48G", "class 0"),
    ("C3G U46C", "class 1"),
    ("C26A G73U", "class 1"),
    ("U20C C63U", "class 0"),
    ("G39A A43G", "class 0"),
    ("U9A G29U", "class 0"),
    ("G31U A83C", "class 0"),
    ("G2U G38U", "class 0"),
    ("G55A A77U", "class 1"),
    ("G52U A77G", "class 1"),
    ("C15G G31U", "class 0"),
    ("G55U A77G", "class 1"),
    ("U46A A56G", "class 1"),
    ("G40U C58G", "class 1"),
    ("G54A C63U", "class 1"),
    ("G35A G67U", "class 1"),
    ("G39U U47G", "class 1"),
    ("G1C G25A", "class 0"),
    ("G76A G81A", "class 1"),
    ("G73C G81U", "class 0"),
    ("U47C C62U", "class 1"),
    ("C18G U72G", "class 0"),
    ("C7G C57G", "class 0"),
    ("C32U U79C", "class 0"),
    ("A45U G55A", "class 1"),
    ("C33U A42G", "class 1"),
    ("C62U G74U", "class 1"),
    ("C44U U72G", "class 1"),
    ("G68C A78U", "class 1"),
    ("A71C", "class 1"),
    ("G29C C49G", "class 0"),
    ("U27A C75U", "class 0"),
    ("C32A G76C", "class 0"),
    ("G28U A77C", "class 0"),
    ("G1C A77C", "class 0"),
    ("A8C C36G", "class 0"),
    ("G6A U79G", "class 0"),
    ("A8C U12G", "class 1"),
    ("U20G G53C", "class 0"),
    ("G39U C86A", "class 1"),
    ("A71G A87U", "class 1"),
    ("G39C C66A", "class 1"),
    ("G55U G76U", "class 1"),
    ("C75A", "class 0"),
    ("G1C C21A", "class 0"),
    ("C3G A16U", "class 1"),
    ("A56U A77G", "class 1"),
    ("C62A C75A", "class 0"),
    ("C18A U60C", "class 0"),
    ("G11A C64G", "class 1"),
    ("C15U C19A", "class 0"),
    ("G40U U72C", "class 0"),
    ("C33U C85A", "class 1"),
    ("C14A G52A", "class 1"),
    ("G28U C64A", "class 0"),
    ("C22A C44G", "class 0"),
    ("C3G C36U", "class 0"),
    ("A8G U72A", "class 1"),
    ("G25A A56G", "class 0"),
    ("C4U A43U", "class 1"),
    ("A45G G82A", "class 1"),
    ("C32G A78G", "class 0"),
    ("C21U U47C", "class 0"),
    ("C84A C86A", "class 1"),
    ("C36A C41G", "class 0"),
    ("C15G C75A", "class 0"),
    ("G54A G68U", "class 1"),
    ("C14A G38A", "class 0"),
    ("U23C C48A", "class 1"),
    ("G5A C32A", "class 0"),
    ("G17C A78G", "class 0"),
    ("C7G G35U", "class 0"),
    ("U46G G81C", "class 0"),
    ("A51U C58U", "class 1"),
]
